# Test system: c-Myc protein
# Experimental Protocol: De novo synthesis assay of c-Myc protein in primary tumor cells
# Assay type: cell-based, mouse
# Assay Conditions: CHX pre-treatment, wash, MG132
Readout Kind: de novo synthesis of c-Myc protein

INSERT INTO results (compound, readout_kind, meas_value) VALUES
  ('CO[C@H]1C[C@@H]2CC[C@@H](C)[C@@](O)(O2)C(=O)C(=O)N2CCCC[C@H]2C(=O)O[C@H]([C@H](C)C[C@@H]2CC[C@@H](OCCO)[C@H](OC)C2)CC(=O)[C@H](C)/C=C(\C)[C@@H](O)[C@@H](OC)C(=O)[C@H](C)C[C@H](C)/C=C/C=C/C=C/1C [RAD001]', 'de novo synthesis of c-Myc protein', 'markedly prevented'),
  ('CCc1cncnc1N1CCN(Cc2nc3ccc(C(F)(F)F)cc3[nH]2)CC1 [PF4708671]', 'de novo synthesis of c-Myc protein', 'markedly prevented'),
  ('Cn1c(=O)n(-c2ccc(C(C)(C)C#N)cc2)c2c3cc(-c4cnc5ccccc5c4)ccc3ncc21 [BEZ235]', 'de novo synthesis of c-Myc protein', 'markedly prevented');

These entries and their values trace back to patent US11366100B2.
